# test_system: Acetylcholine-binding protein (Lymnaea stagnalis, UniProt P58154)
# Sequence (P58154 whole entry): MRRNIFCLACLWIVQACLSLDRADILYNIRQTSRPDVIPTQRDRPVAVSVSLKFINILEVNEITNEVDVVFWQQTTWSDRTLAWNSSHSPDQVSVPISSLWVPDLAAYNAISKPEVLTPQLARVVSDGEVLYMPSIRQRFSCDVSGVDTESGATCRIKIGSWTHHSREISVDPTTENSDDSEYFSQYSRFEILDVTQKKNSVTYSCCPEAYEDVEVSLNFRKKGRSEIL
pKi: −log10 of the molar value.
Entries are sorted into classes by pKi as follows: b0 = under 5, b1 = from 5 up to 6, b2 = 6 and over

Before answering, review these 5 worked examples.
| compound | class_name |
| --- | --- |
| CC(C)(C)c1ccc(C(CN)c2ccccc2)cc1 (stereo not given) | b0 |
| CN1CCN(Cc2ccccc2Sc2ccccc2)CC1 | b1 |
| c1ccc(Sc2ccccc2CN2CCCC2)cc1 | b2 |
| NCc1ccsc1C(O)c1ccccc1 (stereo not given) | b0 |
| CCN(CC)Cc1csc2ccc(Cl)cc12 | b1 |

State the class of the compound shown: c1ccc(C2CCN(CCc3nc4ccccc4[nH]3)CC2)cc1
b1

====

So I've got Ki readings for Acetylcholine-binding protein (Lymnaea stagnalis, UniProt P58154), take a look.
Write the number in nM without appending the unit.

Completed entries (count: 5):
| compound | Ki [nM] |
| --- | --- |
| NCC(OCc1ccc(Cl)cc1Cl)c1ccccc1 (stereo unspecified) | 5010 |
| NCC(c1ccccc1)c1ccc(-c2ccccc2)cc1 (stereo unspecified) | 12600 |
| CC1NCCOC1c1ccc(Cl)cc1 (stereo unspecified) | 12600 |
| O=C1COc2ccccc2N1CCCCN1CCc2ccccc2C1 | 501 |
| c1ccc2c(CN3CCCCC3)csc2c1 | 1000 |

Acetylcholine-binding protein (Lymnaea stagnalis, UniProt P58154) / Ki / CC(C)(C)C(N)/C=C/c1ccc(Cl)cc1Cl (stereo unspecified) : value?
12600

Lookup: Ki / Acetylcholine-binding protein (Lymnaea stagnalis, UniProt P58154) / Cc1ccccc1C(OCCN1CCCCC1)c1ccccc1 (stereo unspecified)
316

Recall the recorded Ki for C[N+]1(CCO)Cc2sc3ccc(Cl)cc3c2C1 (stereo unspecified) with Acetylcholine-binding protein (Lymnaea stagnalis, UniProt P58154) and state it.
1000

Query for Acetylcholine-binding protein (Lymnaea stagnalis, UniProt P58154): what Ki does the record show for ClC1(CNc2ccccc2)CCN(Cc2ccccc2)CC1 ?
1580

// fetch Acetylcholine-binding protein (Lymnaea stagnalis, UniProt P58154) Ki for Cc1ccc(C(OCC2CCC[N+](C)(C)C2)c2ccccc2)cc1 (stereo unspecified)
501

# value lookup — system Acetylcholine-binding protein (Lymnaea stagnalis, UniProt P58154), readout Ki, item CSc1[nH]c2ccccc2c1CN1CCCCC1
1580

Recorded Ki for OC(COCc1ccc(Cl)cc1)CN1CCc2ccccc2C1 (stereo unspecified) with Acetylcholine-binding protein (Lymnaea stagnalis, UniProt P58154), please?
1580

====

# test_system: Neuronal acetylcholine receptor subunit alpha-7 (Homo sapiens, UniProt P36544)
# Sequence (P36544 whole entry): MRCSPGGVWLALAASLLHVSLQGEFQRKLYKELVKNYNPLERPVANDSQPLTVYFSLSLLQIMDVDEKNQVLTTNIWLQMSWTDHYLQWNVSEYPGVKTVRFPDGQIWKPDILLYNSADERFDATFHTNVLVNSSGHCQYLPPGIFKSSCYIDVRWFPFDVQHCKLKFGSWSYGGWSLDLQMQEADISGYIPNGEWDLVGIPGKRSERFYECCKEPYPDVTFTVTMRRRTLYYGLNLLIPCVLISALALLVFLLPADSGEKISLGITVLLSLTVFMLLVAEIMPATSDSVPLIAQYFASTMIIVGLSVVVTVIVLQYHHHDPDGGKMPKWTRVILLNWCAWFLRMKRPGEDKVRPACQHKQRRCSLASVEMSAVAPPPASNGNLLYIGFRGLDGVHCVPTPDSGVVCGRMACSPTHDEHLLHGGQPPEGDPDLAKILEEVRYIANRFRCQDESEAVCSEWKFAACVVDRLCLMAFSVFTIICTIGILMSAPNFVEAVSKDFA
# measurement_description: Displacement of [3H]-MLA from human alpha7 nAChR expressed in human SH-SY5Y cells after 1.5 hrs by liquid scintillation counting
quantity_measured: Ki

Illustrative cases are given below, each with its answer.
| compound | Ki |
| --- | --- |
| c1ccc2c3c([nH]c2c1)C1CCCN1CC3 (stereo not given) | ≥ 31.6 µM |
| C=CC1CN2CCC1CC2c1[nH]c2ccccc2c1CCO (stereo not given) | ≥ 31.6 µM |
| CC(C)(C)c1ccc(C(CN)c2ccccc2)cc1 (stereo not given) | ≥ 31.6 µM |

For the compound CC(C)(C)C(N)/C=C/c1ccc(Cl)cc1Cl (stereo not given) , what Ki is on record?
≥ 31.6 µM

Given Cc1ccc(C(OCC2CCC[N+](C)(C)C2)c2ccccc2)cc1 (stereo not given) , state its recorded Ki.
10 µM

What does the record list as Ki for c1ccc(CN2CCN(CCCSc3cc4ccccc4[nH]3)CC2)cc1 ?
≥ 31.6 µM

Returns the measured Ki for the input compound. Input: c1ccc2c(c1)CC1CNC2c2ccccc21 (stereo not given)
≥ 31.6 µM

Requested read-out: Ki. Entry: ClC1(CNc2ccccc2)CCN(Cc2ccccc2)CC1
≥ 31.6 µM

Name the reported Ki value associated with the compound CC1CC2(CCCCC2)NCc2ccccc21 (stereo not given)
≥ 31.6 µM

Ki for CSc1[nH]c2ccccc2c1CN1CCCCC1 ?
3.98 µM

Entry under review: c1ccc(C2CCN(CCc3cc4ccccc4[nH]3)CC2)cc1 . Reported Ki?
≥ 31.6 µM

Can you share its Ki? I mean this compound: NCC(c1ccc(Cl)cc1)c1ccc(Sc2ccccc2)cc1 (stereo not given)
≥ 31.6 µM

Requested field: Ki. Item: Cc1ccccc1C(OCCN1CCCCC1)c1ccccc1 (stereo not given)
20 µM

Look up Ki: OC(COCc1ccc(Cl)cc1)CN1CCc2ccccc2C1 (stereo not given)
≥ 31.6 µM

Please give the measured Ki for this compound: CC(Cc1ccccc1)NC1CN2CCC1CC2 (stereo not given)
≥ 31.6 µM

May I ask what Ki has been recorded for CN1CCC(c2noc3ccccc23)CC1 ?
≥ 31.6 µM

Value lookup for Ki; key = c1ccc2c(CN3CCCCC3)csc2c1
15.8 µM

Look up Ki for this compound: O=C1CN(Cc2ccccc2)Cc2ccsc21
≥ 31.6 µM

Tell me the measured Ki of CC1NCCOC1c1ccc(Cl)cc1 (stereo not given) , please.
≥ 31.6 µM

I'd like to know its Ki. The compound in question is NCC(OCc1ccc(Cl)cc1)c1ccccc1 (stereo not given)
≥ 31.6 µM

Look at this compound and give its reported Ki. O=C1COc2ccccc2N1CCCCN1CCc2ccccc2C1
≥ 31.6 µM

====

Below is a list of entries, each paired with its recorded Ki value.
# test_system: UniProt:P58154
I only need the number, in µM, no unit after it.

| molecule | quantity_measured | unit_tag | quantitative_result |
| --- | --- | --- | --- |
| CC1CCN(CCc2cc3ccccc3[nH]2)CC1 | Ki | µM | 10 |
| CN1CCC(c2noc3ccccc23)CC1 | Ki | µM | 12.6 |
| c1ccc2c3c([nH]c2c1)C1CCCN1CC3 (centres undefined) | Ki | µM | 1.26 |

Request - read-out Ki | tested on UniProt:P58154 | molecule CN1CC2Cc3ccccc3C1c1ccccc12 (centres undefined)
0.794

====

A short record of pKi observed with Acetylcholine-binding protein (Lymnaea stagnalis) follows.
// pKi: -log10(molar conc.)

// fetch Acetylcholine-binding protein (Lymnaea stagnalis) pKi for CC(=O)OCC[N+](C)(C)C
5.20

====

# test_system: Neuronal acetylcholine receptor subunit alpha-7 (Homo sapiens, UniProt P36544)
# measurement_description: Displacement of [3H]-MLA from human alpha7 nAChR expressed in human SH-SY5Y cells after 1.5 hrs by liquid scintillation counting
pKi: −log10 of the molar value.
Entries and their pKi values follow.

Take a look at these entries with their results.
| compound | result |
| --- | --- |
| CCN(CC)Cc1csc2ccc(Cl)cc12 | ≤ 4.50 |
| CN1CC2Cc3ccccc3C1c1ccccc12 (centres undefined) | ≤ 4.50 |
| c1ccc(Sc2ccccc2CN2CCCC2)cc1 | 4.80 |
| NCC(c1ccccc1)c1ccc(-c2ccccc2)cc1 (centres undefined) | ≤ 4.50 |

Consider the compound Cc1ccc(C(c2ccc(C)cc2)N(C)C)cc1 and give its measured pKi.
≤ 4.50

Dear colleague, I am looking for the recorded pKi of the following compound: CC1(C)C=C(c2cc(Br)c(C3=CC(C)(C)NC(C)(C)C3)s2)CC(C)(C)N1
≤ 4.50

Look at this compound and give its reported pKi. c1ccc2c(c1)CCc1ccccc1C2NC12CC3CC(CC(C3)C1)C2
≤ 4.50

// pKi lookup, key: CC1CCN(CCc2cc3ccccc3[nH]2)CC1
≤ 4.50

Looking for the measured pKi of CN1CCN(Cc2ccccc2Sc2ccccc2)CC1 , can you help?
4.70

So what's the measured pKi for this one? C[N+]1(CCO)Cc2sc3ccc(Cl)cc3c2C1 (centres undefined)
4.70

Recorded pKi of c1ccc(C2CCN(CCc3nc4ccccc4[nH]3)CC2)cc1 , please.
≤ 4.50

Which value of pKi has been reported for NCC(OCc1ccc(Cl)cc1Cl)c1ccccc1 (centres undefined) in the records?
≤ 4.50

Returns the measured pKi for the input compound. Input: NCc1ccsc1C(O)c1ccccc1 (centres undefined)
≤ 4.50

GET /values?readout=pKi&item= CC1CC[N+]2(C)CCc3c([nH]c4ccccc34)C2C1 (centres undefined)
≤ 4.50

====

# log10 Ki per entry for Acetylcholine-binding protein (Lymnaea stagnalis, UniProt P58154)
The common logarithm of Ki in µM is what is listed.

| molecule | log10 Ki |
| --- | --- |
| NCC(OCc1ccc(Cl)cc1)c1ccccc1 (stereo not drawn) | 0.80 |

Form field: log10 Ki recorded for c1ccc(CN2CCN(CCCSc3cc4ccccc4[nH]3)CC2)cc1 with Acetylcholine-binding protein (Lymnaea stagnalis, UniProt P58154) (enter value)
0.30

Notebook entry, Acetylcholine-binding protein (Lymnaea stagnalis, UniProt P58154) assay: log10 Ki of c1ccc(C2CCN(CCc3cc4ccccc4[nH]3)CC2)cc1 = ?
0.00

// map CC1CC2(CCCCC2)NCc2ccccc21 (stereo not drawn) to recorded log10 Ki (system: Acetylcholine-binding protein (Lymnaea stagnalis, UniProt P58154))
-0.20
